assayOverview: Phase 1 Stage 1 clinical pharmacokinetics of SC ZA co-administered with rHuPH20
Type: in vivo, human
conditions: human, serum, sc, serum; ZA 0.5 mg SC infusion + 24000 Units rHuPH20; 0 h post infusion; individual subjects; read-out: Zoledronic Acid Concentration
metric: concentration at 0 h (ng/mL)
Give bare numbers, in ng/mL.

Given the entry O=P(O)(O)C(O)(Cn1ccnc1)P(=O)(O)O , report its measured concentration at 0 h.
10.8

* * *

assayOverview: Phase 1 Stage 1 clinical pharmacokinetics of SC ZA co-administered with rHuPH20
Format: in vivo, human
conditions: human, serum, sc, serum; ZA 2 mg SC infusion + 24000 Units rHuPH20; 4 h post infusion; individual subjects; read-out: Zoledronic Acid Concentration
metric: concentration at 4 h
Form field: result (number plus unit)

Given the entry O=P(O)(O)C(O)(Cn1ccnc1)P(=O)(O)O , report its measured concentration at 4 h.
17.5 ng/mL

* * *

assayOverview: Phase 1 Stage 1 clinical pharmacokinetics of SC ZA co-administered with rHuPH20
Assay type: in vivo, human
conditions: human, serum, sc, serum; ZA 2 mg SC infusion + 24000 Units rHuPH20; 1 h post infusion; n=3; read-out: Median Conc.
metric: concentration at 1 h

Given the entry O=P(O)(O)C(O)(Cn1ccnc1)P(=O)(O)O , report its measured concentration at 1 h.
57.7 ng/mL

* * *

assayOverview: Phase 1 Stage 1 clinical pharmacokinetics of SC ZA co-administered with rHuPH20
Assay type: in vivo, human
conditions: human, serum, sc, ZA 0.25 mg SC + 24000 U rHuPH20; mean, n=3; read-out: Tmax
Experimental: A pharmacokinetic study of zoledronic acid (ZA) co-administered with rHuPH20 in human subjects was conducted. […] Serum concentration of ZA was determined using a qualified LC-MS-MS assay after derivatization with diazomethane (Zhu, L S et al. (2006) Rapid Commun. […] The assay range was from 2.0 to 400 ng/mL with a lower limit of quantitation (LLOQ) at 2.0 ng/mL. […] Summary statistics (mean, standard deviation, and median) were calculated using JMP or Microsoft Excel.
metric: Tmax
Form field: result (number plus unit)

Given the entry O=P(O)(O)C(O)(Cn1ccnc1)P(=O)(O)O , report its measured Tmax.
1.31 h

* * *

assayOverview: Pharmacokinetics of ZA in pig serum after IV or SC infusion with or without rHuPH20 (LC-MS-MS, non-compartmental analysis)
Type: in vivo
conditions: female, Yorkshire, pig, serum, sc, […], pig 62; SC ZA […], 50 mL over 8 min, no rHuPH20; read-out: T½ λz (converted)
metric: half-life
Form field: result (number plus unit)

Given the entry O=P(O)(O)C(O)(Cn1ccnc1)P(=O)(O)O , report its measured half-life.
58.2 min

* * *

assayOverview: Pharmacokinetics of ZA in pig serum after IV or SC infusion with or without rHuPH20 (LC-MS-MS, non-compartmental analysis)
Assay type: in vivo
conditions: female, Yorkshire, pig, serum, subcutaneous, pig 68, Study Group 3, SC, ZA […], rHuPH20 10000 U/mL, 10 mL over 1.6 min, time 3 h; read-out: Zoledronic Acid Serum Concentration
metric: concentration at 3 h
Form field: result (number plus unit)

Given the entry O=P(O)(O)C(O)(Cn1ccnc1)P(=O)(O)O [ZA] , report its measured concentration at 3 h.
17 ng/mL

* * *

assayOverview: Pharmacokinetics of ZA in pig serum after IV or SC infusion with or without rHuPH20 (LC-MS-MS, non-compartmental analysis)
Type: in vivo
conditions: female, Yorkshire, pig, serum, sc, […], pig 60; SC ZA […], 100 mL over 16 min, no rHuPH20; read-out: Tmax
metric: Tmax (min)
Numbers only, in min.

Given the entry O=P(O)(O)C(O)(Cn1ccnc1)P(=O)(O)O , report its measured Tmax.
20
